Data origin, for the record: patent US11285153B2

- procedureText: Pharmacokinetic evaluation in rats after intravenous or intragastric administration
- Type: in vivo
- assaySetup: SD, rat, plasma, iv, 1 mg/kg
property: AUC(0-inf) (ng·h/mL)
Number in ng·h/mL, nothing else.

// field: AUC(0-inf); key: `Cc1nc(-c2cnc(N3CCN(CCCc4c[nH]c5ccc(C#N)cc45)CC3)nc2)sc1C(N)=O` ; value = 1820
